Data provenance: the RNAGym collection of RNA variant scans (doi:10.1093/nar/gkz1192)

B1: CPEB3 Ribozyme (parent)
chain: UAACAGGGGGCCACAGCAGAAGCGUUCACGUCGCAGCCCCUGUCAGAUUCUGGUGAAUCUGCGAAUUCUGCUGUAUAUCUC

# Variants of: B1
# Assay Details: self-cleavage, relative activity (ratio to wild type); higher = more cleavage; in vitro, sequencing
self-cleavage listing for selected variants.

| Residues | self-cleavage |
| --- | --- |
| UAACAGUGGGCCUCAGCAGAAGCGUUCACGUCGCAGCCCCUGUCAGAUUCUGGUGAAUCUGCGAAUUCUGCUGUAUAUCUC | 0.34 |
| UAACAGGGGGCCACAGCAGAAGCGUUCACGUCGCAGCCCCUAUCAGAUUCUGGUGGAUCUGCGAAUUCUGCUGUAUAUCUC | 0.16 |
| UAACAGGGGGCCACAGCAGAAGCGUUCACAUCGCAGCCCCUGUCAGAUUCUGGUGAAUCUGCGAGUUCUGCUGUAUAUCUC | 0.38 |
| UAACAGGGGGCCACAGCAGAAGCGUACACGUCGCAGCCCCUGUCAGAUUCUGGUGAAUCUGAGAAUUCUGCUGUAUAUCUC | 0.25 |
| UAACAGGGGGCCACAGCAGAAGCGUUCACGUCGCAGCCCCUGUCAGAUUCUAGUGAAUCUGCGAAUUCCGCUGUAUAUCUC | 0.62 |
| UAACAAGGGGCCACAGCAGAAGCGUUCACGUCGCAGCCCCUGUCAGAUUCUGGUGAAUCUGCGAAUUCUGCUUUAUAUCUC | 0.89 |
| UAACAGGGGGCCACAGCAGAAGCGUUCACGUCGCAGGCCCUGCCAGAUUCUGGUGAAUCUGCGAAUUCUGCUGUAUAUCUC | 0.29 |
| UAACCGGGGGCCACAGCAGAAGCGUUCACGUCGCAGCCCCUGUCAGAUUCUGGUGAAUCUGCGAAUUCAGCUGUAUAUCUC | 0.67 |
| UAACAGGGGGCCACAGCAGAAGCGUUCACGUCGCAGCCCCUGCCAGAUUCUGGUGAAUCUGCGAAUUCAGCUGUAUAUCUC | 0.32 |
| UAACAGGGGGCCACAGCAGAAGCGUGCACGUCGGAGCCCCUGUCAGAUUCUGGUGAAUCUGCGAAUUCUGCUGUAUAUCUC | 0.07 |
| UAACAGAGGGCCACAGCAGAAGCGUUCACGUCGCAGCCCCUGUCAGAUUCUGGUGAAUCUGCGAACUCUGCUGUAUAUCUC | 0.13 |
| UAACAGGGGGCCACAGCAGAAGCGUUCACGUCGCAGCCCCUAUCAGAUUCUGGUGAAUCUGCGAAUCCUGCUGUAUAUCUC | 0.21 |
